Protocol Description: Brain lipid-water partition coefficient log MAbrain (membrane affinity) on immobilized brain lipid membranes
Type: physicochemical
Condition Context: Table 6; parameter set for free fraction in brain
Metric Name: logMA_brain
Reply with just the number.

These solved cases illustrate the format of a correct answer.
{"Molecule": "CN1CCN(CCCN2c3ccccc3Sc3ccc(C(F)(F)F)cc32)CC1", "logMA_brain": 4.70}
{"Molecule": "CNCCC(Oc1ccc(C(F)(F)F)cc1)c1ccccc1 (centres unmarked)", "logMA_brain": 3.52}
{"Molecule": "CN(C)CCC=C1c2ccccc2CCc2ccccc21", "logMA_brain": 2.94}
{"Molecule": "O=C(CCCN1CCC(O)(c2ccc(Cl)cc2)CC1)c1ccc(F)cc1", "logMA_brain": 2.7}
{"Molecule": "Cn1c(=O)c2c(ncn2C)n(C)c1=O", "logMA_brain": 1.36}
{"Molecule": "CN(C)CCCN1c2ccccc2Sc2ccc(Cl)cc21", "logMA_brain": 3.70}
{"Molecule": "NC(=O)N1c2ccccc2C=Cc2ccccc21 [Carbamazepine, carbamazepine]", "logMA_brain": 1.79}

Now for the molecule whose logMA_brain we want.
Request: Which logMA_brain is listed for CSc1ccc2c(c1)N(CCC1CCCCN1C)c1ccccc1S2 (centres unmarked) ?
Response: 3.74

----------
System: AGP (α1-acid glycoprotein)
Construct: fused on or other part: immobilised on silica beads (TRANSIL solid support)
Protocol Description: AGP binding constants (TRANSIL AGP Binding Kit)
Condition Context: Table 3; quantified by HPLC; read-out: KD^AGP
Metric Name: Kd
Phrase the answer as number then unit, nothing more needed.

Request: For Cc1cc(=O)n(-c2ccccc2)n1C [Antipyrine, antipyrine] , what is its reported Kd?
Response: 380 µM

----------
Attribute: logMAbrain
Protocol Description: Brain lipid-water partition coefficient log MAbrain (membrane affinity) on immobilized brain lipid membranes
Assay type: physicochemical
Condition Context: Table 4; repeated parameter set

Some solved entries appear below for comparison.
{"Molecule": "CN(C)CCCN1c2ccccc2Sc2ccc(Cl)cc21", "logMAbrain": 3.70}
{"Molecule": "CC(C)Cc1ccc(C(C)C(=O)O)cc1 (stereo not shown)", "logMAbrain": 1.70}
{"Molecule": "COc1ccc2c(c1)c(CC(=O)O)c(C)n2C(=O)c1ccc(Cl)cc1", "logMAbrain": 2.30}

Please look at the following molecule next.
Request: I'd like to know its logMAbrain. The molecule in question is CN/C(=N/CCSCc1nc[nH]c1C)NC#N
Response: 1.80

----------
Protocol Description: Brain lipid-water partition coefficient log MAbrain (membrane affinity) on immobilized brain lipid membranes
Format: physicochemical
Condition Context: Table 1; PBS pH 7.4, quantified by HPLC
Use YES when the recorded logMAbrain is no lower than 3; use NO when it is lower.

Below are worked cases with known answers.
{"Molecule": "O=C(O)c1ccccc1O", "Group": "NO"}
{"Molecule": "CC(=O)Oc1ccccc1C(=O)O", "Group": "NO"}
{"Molecule": "CN(C)CCCN1c2ccccc2Sc2ccccc21", "Group": "YES"}
{"Molecule": "CC(C)NCC(O)COc1cccc2ccccc12 (centres unmarked)", "Group": "NO"}

Request: # check: logMAbrain of COc1ccc2c(c1)c(CC(=O)O)c(C)n2C(=O)c1ccc(Cl)cc1 is greater than or equal to 3
Response: NO

----------
System: AGP (α1-acid glycoprotein)
Construct: fused on or other part: immobilised on silica beads (TRANSIL solid support)
Protocol Description: AGP binding constants (TRANSIL AGP Binding Kit)
Metric Name: pKd
pKd (log units): -log10 of the concentration in mol/L.

Worked set:
{"Compound": "Cn1c(=O)c2[nH]cnc2n(C)c1=O", "System": "AGP (α1-acid glycoprotein)", "Metric Name": "pKd", "Observed Measurement": 3.09}
{"Compound": "C=C[C@H]1C[N@@]2CC[C@H]1C[C@@H]2[C@@H](O)c1ccnc2ccc(OC)cc12", "System": "AGP (α1-acid glycoprotein)", "Metric Name": "pKd", "Observed Measurement": 4.89}
{"Compound": "Clc1cccc(Cl)c1N=C1NCCN1", "System": "AGP (α1-acid glycoprotein)", "Metric Name": "pKd", "Observed Measurement": 4.16}

Request: Any idea what pKd came out for COc1ccc2c(c1)c(CC(=O)O)c(C)n2C(=O)c1ccc(Cl)cc1 on AGP (α1-acid glycoprotein)?
Response: 4.37

Request: Write down the reported pKd of CC(C)NCC(O)COc1cccc2ccccc12 (stereo not shown) , test system: AGP (α1-acid glycoprotein).
Response: 5.27

Request: # query: pKd | item CCCCC1C(=O)N(c2ccccc2)N(c2ccccc2)C1=O | system: AGP (α1-acid glycoprotein)
Response: 4.15
